Below: a set of entries, each annotated with reported apparent KD of MS2 coat protein.
Test system: MS2 coat protein
protocol: apparent KD of MS2 coat protein; designed switch direction (-1 OFF switch, 1 ON switch): 1; higher = weaker reporter binding
condition-description: input ligand: none

The following sequences have reported results that may help.
>  <sequence-entry>
CAGUACAUUCAAGGAUAUUCUCCAUGGAAAGUAGAAGAAGGUGAAACAUGAGGAUCACCCAUGUAGAAAGGAACAUUCGUACUG [Eternabot solution 34] (Eterna round: R96, puzzle: Same State NG 1)

>  <reported-value>
310 nM

$$$$
>  <sequence-entry>
GGUGGGUUACUACCAACACAUGAGGAUCACCCAUGUUUUGGGAAGGAUAUGGUACCUAUUUGGUACCAGAAGGUCCAGUUAGUG [salish99_SSNG3_r04_703] (Eterna round: R96, puzzle: Same State NG 3)

>  <reported-value>
40 nM

$$$$
>  <sequence-entry>
GUGGCGGGUUGAGGAUAUUGGUUGCCGCUGUUUUACAUGAGGAUCACCCAUGUGGGUUGCGGUUUCGAGAAGGGCGGUUGCUGG [salish99_SSNG2_r04_056] (Eterna round: R96, puzzle: Same State NG 2)

>  <reported-value>
24 nM

$$$$
>  <sequence-entry>
GUAGCAUGCAGCGAGGAUAUUCAUAUUAAAACAUGAGGAUCACCCAUGUAGGCCAAAAGGCCUUGGGAGAAGGCGCACAUGCUAC [Xeonanis - 20] (Eterna round: R96, puzzle: Same State 2)

>  <reported-value>
536 nM

$$$$

apparent KD of MS2 coat protein recorded for this sequence, UGCCUGAGUCGAGGAUAUUAUGGAUCAAUUAAUACAUGAGGAUCACCCAUGUAAUUAAUUUAACAUGAGAAGGCGACUCAGGCA [SSNG2/10-A2] (Eterna round: R96, puzzle: Same State NG 2) , is 8.81 nM

====

Tested on: K4 kissing-loop RNA reporter
protocol: apparent KD of K4 kissing-loop reporter; higher = weaker reporter binding
condition-description: Eterna round: R107; input ligand: theophylline 20 uM
measured-endpoint: apparent KD of K4 kissing-loop reporter (µM)
Value expressed in µM; do not type the unit.

// known answers, use as guide
>  <sequence-entry>
UGUGUUGUUUUGAUGUUUGUUGUAAGGUGGCAGGAUAUCGUAGAGGCGAGAAGGGCUUUUUUGCGUUAUGAGUGAUGUUUGUAGG [exeerzmullin]

>  <study-system>
K4 kissing-loop RNA reporter

>  <result-unit>
µM

>  <apparent KD of K4 kissing-loop reporter>
0.471

$$$$
>  <sequence-entry>
GGUUAAUAGGAGGAUACCAGUACGAAUAAAGUACAUUAAUAGUAGAGUGAUGUUCUAAAGUACCCUUGGCAGCUUAGAGUUAGUU [#19 K4 Theophylline B Exclusion]

>  <study-system>
K4 kissing-loop RNA reporter

>  <result-unit>
µM

>  <apparent KD of K4 kissing-loop reporter>
0.257

$$$$
>  <sequence-entry>
UCGAACGAUGGAAGGAGCGCUCGUCAGCCCUGCGAGUGAUGUUCGUGGGUAAAUAGUCGCGAGCAGGUAGGUCGCCAUCUUGAGC [Zainsotima]

>  <study-system>
K4 kissing-loop RNA reporter

>  <result-unit>
µM

>  <apparent KD of K4 kissing-loop reporter>
0.119

$$$$
>  <sequence-entry>
GUAGGCUACCGAGGAUAUAGUCCAACGGAGUGAUGUUCCGUCUUUCUUCAUCAUUAACGUUGUGAUCUAGAAGGCGGUAGCCUAC

>  <study-system>
K4 kissing-loop RNA reporter

>  <result-unit>
µM

>  <apparent KD of K4 kissing-loop reporter>
0.529

$$$$
>  <sequence-entry>
UCCUGCAAUCGACCACGAAAGUGGAUUGAUACCAGAGUCGAAAGACUCCCUUGGCAGCGAGUGAUGUUCGAAGCAGGUAAAUAAA

>  <study-system>
K4 kissing-loop RNA reporter

>  <result-unit>
µM

>  <apparent KD of K4 kissing-loop reporter>
0.457

$$$$

Pending sequence:
Item CGUGAGGACCAGAGGUGAUGUAUAGUAUCGCGAGGACCGGUACGGCCGCCACUCGUGAAGAGAAAGGAGUGAUGUUCCGUAAUGG [Kazoo C10] was tested on K4 kissing-loop RNA reporter; the reported apparent KD of K4 kissing-loop reporter is 0.377

====

Each record here notes measured apparent KD of MS2 coat protein.
Tested on: MS2 coat protein
protocol: apparent KD of MS2 coat protein; designed switch direction (-1 OFF switch, 1 ON switch): -1; higher = weaker reporter binding
condition-description: input ligand: FMN 200 uM
Kindly provide the numeric value in nM only, without the unit symbol.

Would you please look over these solved cases?
>  <sequence-entry>
ACAUGAGGAUCACCCAUGUGCACGUAAUGGCUCAUGUAGAGAGAGGAUAUGUGUGACGAACGAGCACAGAAGGCUCAAGACUGG [Deportation 14 - Jieux - Exclusion NG 3] (Eterna round: R96, puzzle: Exclusion NG 3)

>  <apparent KD of MS2 coat protein (nM)>
202

$$$$
>  <sequence-entry>
AUGCCCUGAGGAUAUCUCAUCCCGCACAUGAGGAUCACCCAUGUUCUUCUCCGGGUUUCGAGAGAAGGCAGGCCUA [Armus4] (Eterna round: R97, puzzle: Exclusion 5)

>  <apparent KD of MS2 coat protein (nM)>
79.4

$$$$
>  <sequence-entry>
GAGUAGUGAGGAUAUGCAAUGAUCAUCGUACGAUGAGGCUGACAUGAGGAUCACCCAUGUAGAAGGCGCUGAUC [EX2 #18] (Eterna round: R97, puzzle: Exclusion 2)

>  <apparent KD of MS2 coat protein (nM)>
57.3

$$$$
>  <sequence-entry>
AAUAACAAGCCGAUCCUUCACAUGAGGAUCACCCAUGUGUUCGUCUUGUAAAGUACUAUCACGAAAGUGAUAGUACA (Eterna round: R97, puzzle: Sensor, turn-off variant 1)

>  <apparent KD of MS2 coat protein (nM)>
18

$$$$

Now, please, on to the next sequence.
apparent KD of MS2 coat protein reported for this sequence AGCUAGAUAGGAUAUGCCCGGGAUAACAUGAGGAUCACCCAUGUGACCGAUUCAUGUCCUGCAGAAGGGUUUGGGA [Mod of ViennaUCT 7 - Jieux - Exclusion 5] (Eterna round: R97, puzzle: Exclusion 5) : 15.1

====

In this section we review reported apparent KD of K4 kissing-loop reporter values for a set of sequences.
Test system: K4 kissing-loop RNA reporter;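 further: bound reporter read as fluorescence of individual clusters on recovered sequencing chips by microscopy, with normalized cluster intensities fitted with a binding model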
protocol: apparent KD of K4 kissing-loop reporter; higher = weaker reporter binding
condition-description: Eterna round: R107; input ligand: none
Numeric only. Scale: nM

>  <sequence-entry>
AGAUCUGUAACAGAUACCAGAGGACGAUGAUCGAACAGUGAUGUUAUCUGUUAGUCGUCGCUCCCUUGGCAGCUGUUACAGAUCA [Omei KL Theo B SS B v4]

>  <result-unit>
nM

>  <apparent KD of K4 kissing-loop reporter>
55.5

$$$$
>  <sequence-entry>
UUGUUUCCGACGGCCGCCACUGGUUUCUUUGUUGUAGUGAUGUUGCGGUGGAAUGAUAGCGUUAACAGGACCGGGUCGGUGAGAC [theeternabot_sameState_KL_Trp_B_42]

>  <result-unit>
nM

>  <apparent KD of K4 kissing-loop reporter>
774

$$$$
>  <sequence-entry>
GCCGUACGCAUGGAUACCAGUCUUUCACGACUGGGCAUGGAGUGAUGUUUCGUGAUGCUAGACCCUUGGCAGCCAUGCGUACGGC

>  <result-unit>
nM

>  <apparent KD of K4 kissing-loop reporter>
175

$$$$
>  <sequence-entry>
GUGGUACAGGCGGCCGCCACUAGUGAUGUUAGUGAUAGAAGAUAUAGUAUAUAUCGGCAUUUAGUUAGGACCGGGCCUGGUGGUG [wwwrcmullin]

>  <result-unit>
nM

>  <apparent KD of K4 kissing-loop reporter>
360

$$$$

The reported value for `GCCGUAGAUGGAAGGAGCGUGCGUGAAGUGAUGUUUCACGAAGAGUUUUCCACCUUAUAUGCACAGGUAGGUCGCCAUCUACGGC` in terms of apparent KD of K4 kissing-loop reporter is 100

Documented apparent KD of K4 kissing-loop reporter of GCUCAGGAGUGAUGUUCCAAGUGAUGUUAACGAGGACCGGUACGGCCGCCACUCGAUACGGCCGGACCGUAAGAUAAACUAGAGC [Same State - Tryptophan A (Freestyle 8)] : 188

====

Tested on: MS2 coat protein
protocol: apparent KD of MS2 coat protein; designed switch direction (-1 OFF switch, 1 ON switch): -1; higher = weaker reporter binding
condition-description: input ligand: FMN 200 uM
Answer Not met if apparent KD of MS2 coat protein is under 70 nM, and Met if it is 70 nM or more.

>  <sequence-entry>
GUGUUGUCAGGAUAUCUUACAUAACUAUCGUUGUUACCAUUGGAGAAGGGACAUGAGGAUCACCCAUGUUUUCG [tap-tap-tappy50] (Eterna round: R97, puzzle: Exclusion 4)

>  <category>
Not met

$$$$
>  <sequence-entry>
AGUUGGCGAGGAUAUACAUGAGGAUCACCCAUGUAAGAGAUACGAGUAAGGUAAAUAUGUAGAAGGCGCUGACA [JR_Ex3_Sub076] (Eterna round: R97, puzzle: Exclusion 3)

>  <category>
Met

$$$$
>  <sequence-entry>
UACAUGAGGAUCACCCAUGUUUUGUCGUGUAUGGUAUUUAUCUAGGAUAUCAAUUUGAUUAUUUAUGAGAAGGAGAAUAUUAAU [JMF's solution 65] (Eterna round: R96, puzzle: Exclusion NG 3)

>  <category>
Not met

$$$$

Is the recorded value of apparent KD of MS2 coat protein equal to or greater than 70 nM for this sequence? GCACGGAAUGUAGGAUAUUAGUGCGAUUAGCACUGAGAAGGACAUGAGGAUCACCCAUGUAAUAACAUAAUAAACCUUCCGUGC [Eli exng1 - 046] (Eterna round: R96, puzzle: Exclusion NG 1)
Not met

Origin of the recorded values: the supplement of paper PMC9170038
